target: GPNMB-V5His (recombinant human GPNMB extracellular domain with C-terminal V5-His tag) (human) (UniProt Q14956); assay: ELISA, coated GPNMB, Ab 3 ug/mL
value-type: Avg OD (OD)
Reply with just the number (in OD).

A selection of reference data follows.
[[record]]
binder = "2-22 (hybridoma of Table 6) (antibody, V domains shown) VH: QVQLEQSGPGLVKPSQNLSLTCTVSGGSISSGGYFWSWIRQHPGKGLEWIGYIYYSGNTYYNPSLKSRVTISVDTSKNQFSLKLSSVTAADTAVYYCARDYYYDTSGFSYRYDWYYGMDVWGQGTTVTVSS VL: DIQLTQSPSSLSASVGDRVTITCRASQGIRNDLGWYQQKPGKAPKRLIYAASSLQNGVPSRFSGSGSGTEFTLTISSLQPEDFATYYCLQHNTYPAFGQGTKVEIKR"
value_type = "Avg OD"
reading = 0.714

[[record]]
binder = "1.7.3 (antibody, V domains shown) VH: QVQLQESGPGLVKPSQTLSLTCTVSGGSISSANYYWTWIRQHPGKGLEWIGYIYYSGSTYCNPSLKSRVIISVDTSKNQFSLKLSSVTAADTAVYYCARGYNWNYFDYWGQGTLVTVSS VL: DIVMTQSPATLSVSPGERATLSCRASQSVSSNLAWYQERPGQAPRLLIYGASTRATGIPARFSGSGSGTEFTLTISSLQSEDFAVYYCQQYNKWPPWTFGQGTKVEIER"
value_type = "Avg OD"
reading = 1

[[record]]
binder = "2-17 (hybridoma of Table 6) (antibody, V domains shown) VH: QLVQSGAEVKKPGASVKVSCKASGYTFTGFYMHWVRQTPGQGLEWMGWINPNSGGTYYVQKFQGRVTMTRDTSISTVYMELSRLRSDDTAVYYCARDGYSSGEDWFDPWGQGTLVTVSS VL: DIVMTQTPLSLSVTPGQPASISCKSSQSLLHSGGKTYLYWYLQRPGQPPQLLIYEVSNRFSGVPDRFSGSGSGTDFTLKISRVEAEDVGVYYCMQSIHLPLTFGGGTKVEIKR"
value_type = "Avg OD"
reading = 0.053


The measured Avg OD associated with 2-15 (hybridoma of Table 6) (antibody, V domains shown) VH: QVQLVESGGGVVQPGRSLRLSCAASGFTFSNYGIHWVRQAPGKGLEWVAVIWFDGRNKYYADSVKGRFTISRDNSKNTLYLQMNSLRAEDAAVYYCARDPFDYGDSFFDYWGQGTLVTVSS VL: LTQSPSSLSASVRDRVTITCRASQDISNYLAWYQQKPGKVPNLLIYAASTLQSGVPSRFSGSGSGTDFTLTISSLQPEDVATYYCQKYNSAPLTFGGGTKVEIKR reads 0.601

The measured Avg OD associated with Mab1.2.2 (antibody, human IgG2, V domains shown) VH: ITLKESGPTLVKPTQTLTLTCTFSGFSLSAGGVGVGWIRQPPGKALEWLALIYWNDDKRYSPSLRSRLTITKDTSKNQVVLTITNMDPVDTATYYCAHSHYDYDWGSYFDYWGQGTLVTVSS VL: DIVMTQTPLSLPVTPGEPASISCRSSQSLLDSDDGNTYLDWYLQKPGQSPQLLIYTLSYRASGVPDRFSGSGSGTDFTLNISRVEAEDVGVYYCMQRIEFPITFGQGTRLEIKR reads 0.763

The measured Avg OD associated with 2-7 (hybridoma of Table 6) (antibody, V domains shown) VH: QVQLEQSGGGVVQPGRSLRLSCAASGFTFNNYGMHWVRQAPGKGLEWVAVIWYDGSNKYYADSVKGRFTISRDNSKNTLYLQMNSLRAEDTAVYYCAKDEEYYYVSGLDYWGQGTLVTVSS VL: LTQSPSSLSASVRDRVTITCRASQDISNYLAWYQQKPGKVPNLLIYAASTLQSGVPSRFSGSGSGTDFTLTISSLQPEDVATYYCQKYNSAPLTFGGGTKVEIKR reads 0.827

The measured Avg OD associated with 2-16 (hybridoma of Table 6) (antibody, V domains shown) VH: QVQLVESGGGLVKPGGSLRLSCAASGFTFSDYYMTWIRQAPGKGLEWVSYISISGSITHYADSVKGRFTMSRDNAKNSLYLQMNSLRAEDTAVYYCARDGAAAGTDAFDIWGHGTKVTVSS VL: EIVMTQSPATLSVSPGDRATLSCRASQNVSSNLAWYQQKPGQAPRLLIFGASTRATGIPARFSGSGSGTEFTLTISSLQSEDFAVYYCQQYHYWPTFGPGTKVDIKR reads 0.359
